System: Leishmania major
procedureDetails: Antileishmanial activity against Leishmania major promastigotes after 72 hrs by Neubauer chamber based cell counting method
Type: functional, organism-based
I'd appreciate it if you could supply IC50 values for the items below.
Write down the value, and be sure its unit follows.

### Prompt Supply reported IC50 belonging to this compound: CCCN1CN(CC(=O)OCC)CSC1=S
### Response 107 µM

### Prompt Kindly indicate its recorded IC50. Item: CCN1CSC(=S)N(CC(=O)O)C1
### Response 45.8 µM

### Prompt Report IC50, nothing else, for this compound: CCCCN1CN(CC(=O)OCC)CSC1=S
### Response 36.5 µM

### Prompt Fill in IC50 for record CCCCN1CSC(=S)N(C(C)c2ccccc2)C1 (centres undefined)
### Response 21.4 µM

### Prompt Provide IC50 value for the following compound: CCCN1CSC(=S)N(CC(=O)O)C1
### Response 69.6 µM

### Prompt Name the recorded IC50 of the compound listed here: CCN1CSC(=S)N(C(C)c2ccccc2)C1 (centres undefined)
### Response 46.2 µM

### Prompt Tell me IC50 reported for CC(C)N1CSC(=S)N(C(C)c2ccccc2)C1 (centres undefined)
### Response 21.4 µM

### Prompt Please give the documented IC50 of COc1ccc(CN2CN(CC(=O)O)CSC2=S)cc1OC
### Response 15.5 µM

### Prompt Provide one value: measured IC50 of CCCN1CSC(=S)N(C(C)c2ccccc2)C1 (centres undefined)
### Response 24.2 µM

### Prompt Tell us which IC50 value is on record for O=C(O)CN1CN(CCO)CSC1=S
### Response 39.4 µM

### Prompt # return recorded IC50 for entry N=C(N)c1ccc(OCCCCCOc2ccc(C(=N)N)cc2)cc1
### Response 15 µM

### Prompt Give the value of IC50 reported for the following: CC(C)N1CN(CC(=O)O)CSC1=S
### Response 137 µM

### Prompt Specify reported IC50 for the compound shown: CC(c1ccccc1)N1CN(CCO)CSC1=S (centres undefined)
### Response 32.2 µM

### Prompt Fill in IC50 for record CCN1CSC(=S)N(CC)C1
### Response 38.4 µM

Reference source: ChEMBL document CHEMBL4265892
